Each item that follows carries a reported IC50.
Target: Plasma Kallikrein (Homo sapiens (Human))
Sequence (P03952 391-638): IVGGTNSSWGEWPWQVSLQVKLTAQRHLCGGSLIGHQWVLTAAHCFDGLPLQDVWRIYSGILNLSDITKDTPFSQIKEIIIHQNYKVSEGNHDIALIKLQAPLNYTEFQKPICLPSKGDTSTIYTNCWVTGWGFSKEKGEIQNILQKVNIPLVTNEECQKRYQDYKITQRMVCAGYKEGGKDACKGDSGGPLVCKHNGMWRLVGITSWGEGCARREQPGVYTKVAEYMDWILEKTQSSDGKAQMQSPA
Sequence (P03952 20-390 partner): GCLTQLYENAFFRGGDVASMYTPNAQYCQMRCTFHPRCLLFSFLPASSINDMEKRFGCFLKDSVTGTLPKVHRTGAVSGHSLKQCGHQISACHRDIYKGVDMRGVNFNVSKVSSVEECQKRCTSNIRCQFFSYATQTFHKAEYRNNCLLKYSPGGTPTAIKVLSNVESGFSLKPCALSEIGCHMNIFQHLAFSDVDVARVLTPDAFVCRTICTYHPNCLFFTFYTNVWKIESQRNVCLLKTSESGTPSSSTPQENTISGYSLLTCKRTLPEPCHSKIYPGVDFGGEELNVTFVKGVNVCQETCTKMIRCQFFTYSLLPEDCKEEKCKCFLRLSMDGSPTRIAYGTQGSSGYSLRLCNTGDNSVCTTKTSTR
Assay: Determination of related protease inhibition: Plasma Kallikrein (fluorogenic substrate at Km)
Details: 25° C., read-out: IC50 (human PKal)

Some entries whose results are on file:
{"COMPOUND": "CN1CCC(CCc2ccc(CNc3cccc4c(N)nccc34)cc2)CC1", "IC50": "10 to 40 µM"}
{"COMPOUND": "CN1CCC(COc2cc(CNc3cnc4c(N)nccc4c3)ccn2)CC1", "IC50": "> 40 µM"}

Qu. Form field: reported IC50 of CC(=O)N1CC2CC1CC2COc1cc(CNc2cccc3c(N)nccc23)ccn1 (stereo not drawn)
Ans. > 40 µM

Qu. Please do the same for Nc1ncc(Cl)c2cc(NCc3ccnc(OCC4CCn5c(C(=O)O)cnc5C4)c3)ccc12 (stereo not drawn) as well.
Ans. > 40 µM

Qu. Please do the same for "CN1CCN(c2cc(CNc3cccc4c(N)nccc34)ccn2)CC1" as well.
Ans. > 40 µM

Qu. Please do the same for "Nc1nccc2c(NCc3ccc(N4CCn5ncc(O)c5C4)nc3)cccc12" as well.
Ans. > 40 µM

Qu. Please do the same for Nc1nccc2c(NCc3ccc(N4CCC(CC(F)F)C4)nc3)cccc12 (stereo not drawn) as well.
Ans. > 40 µM

Qu. Please do the same for "CN1CCC(CNc2ccc(CNc3ccnc4[nH]cc(C#N)c34)cn2)CC1" as well.
Ans. > 100 µM
